B1: library; a variant is named by its letters at N, in order (parent)
chain: GCUGUCACCGGAAUACCAGCAUCGUCUUGAUGCCCUUGGAAGUCCGGUCUGAUGAGUCCNNNNNGGACGAAACAGC

- Variants of: B1
- experimentSummary: normalized RNA/DNA level with ligand (relative to sTRSVctl = 100) (log10 (% of sTRSVctl)); higher = less ribozyme self-cleavage, higher mRNA level
- assaySetup: ligand concentration (+) RNA-Seq: 5 mM, HEK293T, reporter: mCherry (pCS4076), ligand present: yes
measurementType: normalized RNA/DNA level with ligand (log10)

// below: answered variants
## Input Please look up its normalized RNA/DNA level with ligand (log10): GCUGUCACCGGAAUACCAGCAUCGUCUUGAUGCCCUUGGAAGUCCGGUCUGAUGAGUCCGAAGAGGACGAAACAGC [GAAGA]
## Output 1.89

## Input Item under review: GCUGUCACCGGAAUACCAGCAUCGUCUUGAUGCCCUUGGAAGUCCGGUCUGAUGAGUCCACCAGGGACGAAACAGC [ACCAG] . Reported normalized RNA/DNA level with ligand (log10)?
## Output 1.93

## Input What does the data say about its normalized RNA/DNA level with ligand (log10)? Entry: GCUGUCACCGGAAUACCAGCAUCGUCUUGAUGCCCUUGGAAGUCCGGUCUGAUGAGUCCACUGGGGACGAAACAGC [ACUGG]
## Output 2.05

## Input Could you tell me which normalized RNA/DNA level with ligand (log10) is on file for GCUGUCACCGGAAUACCAGCAUCGUCUUGAUGCCCUUGGAAGUCCGGUCUGAUGAGUCCAUUUGGGACGAAACAGC [AUUUG] ?
## Output 2.03

## Input If you can, please state the reported normalized RNA/DNA level with ligand (log10) value of GCUGUCACCGGAAUACCAGCAUCGUCUUGAUGCCCUUGGAAGUCCGGUCUGAUGAGUCCCUAGAGGACGAAACAGC [CUAGA] .
## Output 1.96

Others:
## Input Given the entry GCUGUCACCGGAAUACCAGCAUCGUCUUGAUGCCCUUGGAAGUCCGGUCUGAUGAGUCCAUAGAGGACGAAACAGC [AUAGA] , report its measured normalized RNA/DNA level with ligand (log10).
## Output 1.96

## Input Which normalized RNA/DNA level with ligand (log10) value belongs to GCUGUCACCGGAAUACCAGCAUCGUCUUGAUGCCCUUGGAAGUCCGGUCUGAUGAGUCCAAUUAGGACGAAACAGC [AAUUA] ?
## Output 1.97

## Input // lookup normalized RNA/DNA level with ligand (log10) for GCUGUCACCGGAAUACCAGCAUCGUCUUGAUGCCCUUGGAAGUCCGGUCUGAUGAGUCCCGCCUGGACGAAACAGC [CGCCU]
## Output 2.08

## Input Suppose we examine the variant GCUGUCACCGGAAUACCAGCAUCGUCUUGAUGCCCUUGGAAGUCCGGUCUGAUGAGUCCCUCUAGGACGAAACAGC [CUCUA] ; what normalized RNA/DNA level with ligand (log10) value has been reported?
## Output 2.05

## Input Quick check: normalized RNA/DNA level with ligand (log10) of GCUGUCACCGGAAUACCAGCAUCGUCUUGAUGCCCUUGGAAGUCCGGUCUGAUGAGUCCUGGCUGGACGAAACAGC [UGGCU] ?
## Output 2.01

## Input May I ask what normalized RNA/DNA level with ligand (log10) has been recorded for GCUGUCACCGGAAUACCAGCAUCGUCUUGAUGCCCUUGGAAGUCCGGUCUGAUGAGUCCUGCCGGGACGAAACAGC [UGCCG] ?
## Output 2.04

## Input Field request: normalized RNA/DNA level with ligand (log10) | item: GCUGUCACCGGAAUACCAGCAUCGUCUUGAUGCCCUUGGAAGUCCGGUCUGAUGAGUCCAACUCGGACGAAACAGC [AACUC]
## Output 2.01

## Input Quick one: normalized RNA/DNA level with ligand (log10) of GCUGUCACCGGAAUACCAGCAUCGUCUUGAUGCCCUUGGAAGUCCGGUCUGAUGAGUCCGAAAUGGACGAAACAGC [GAAAU] ?
## Output 2.01

## Input For GCUGUCACCGGAAUACCAGCAUCGUCUUGAUGCCCUUGGAAGUCCGGUCUGAUGAGUCCCAGCAGGACGAAACAGC [CAGCA] , what is its reported normalized RNA/DNA level with ligand (log10)?
## Output 1.88

Cited source for all entries: the supplement of paper PMC6757056
